Reference source for all entries: patent US10815213B2

target: human full-length BTK Kinase (Homo sapiens (Human), UniProt Q06187)
Sequence (Q06187 whole entry): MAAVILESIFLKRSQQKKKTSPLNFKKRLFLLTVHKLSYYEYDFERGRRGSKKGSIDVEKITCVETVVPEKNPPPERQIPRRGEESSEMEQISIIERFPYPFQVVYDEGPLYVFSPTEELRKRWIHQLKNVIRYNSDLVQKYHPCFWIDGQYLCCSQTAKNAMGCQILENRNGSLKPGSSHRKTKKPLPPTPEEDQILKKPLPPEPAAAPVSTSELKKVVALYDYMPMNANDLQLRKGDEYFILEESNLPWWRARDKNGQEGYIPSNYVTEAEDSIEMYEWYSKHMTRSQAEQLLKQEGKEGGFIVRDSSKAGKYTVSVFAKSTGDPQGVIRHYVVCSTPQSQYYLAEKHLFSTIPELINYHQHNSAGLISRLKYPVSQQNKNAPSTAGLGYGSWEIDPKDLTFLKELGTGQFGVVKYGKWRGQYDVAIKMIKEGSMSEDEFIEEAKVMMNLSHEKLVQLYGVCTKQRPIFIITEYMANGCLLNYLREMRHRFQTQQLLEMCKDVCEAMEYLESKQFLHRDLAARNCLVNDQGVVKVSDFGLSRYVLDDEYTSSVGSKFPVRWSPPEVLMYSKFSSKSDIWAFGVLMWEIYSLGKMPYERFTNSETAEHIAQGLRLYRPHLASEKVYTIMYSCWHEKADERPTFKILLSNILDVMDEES
MEASURED_QUANTITY: pIC50
Please keep in mind that pIC50 is minus log10 of the molar concentration; only the number is needed.

1. NC(=O)c1c(-c2ccc(Oc3ccc(Cl)cc3)cc2)nn([C@@H]2CCCN(C(=O)/C=C/CF)C2)c1N    8.96
2. NC(=O)c1c(-c2ccc(Oc3ncc(Cl)cc3F)cc2)nn([C@@H]2CCCN(C(=O)/C=C/CF)C2)c1N    8.85
3. CC(C)(O)/C=C/C(=O)N1CCC[C@@H](n2nc(-c3ccc(Oc4ccc(F)cc4F)cc3)c(C(N)=O)c2N)C1    6.62

# input Please give the measured pIC50 for this compound: NC(=O)c1c(-c2ccc(Oc3ncc(Cl)cc3F)cc2)nn([C@@H]2CCCN(C(=O)/C=C/C(F)F)C2)c1N
# output 9.15

# input Next compound: NC(=O)c1c(-c2ccc(Oc3ccc(F)cc3F)cc2)nn([C@@H]2CCCN(C(=O)/C=C/CF)C2)c1N
# output 8.55

# input Next compound: C[C@H](O)/C=C/C(=O)N1CCC[C@@H](n2nc(-c3ccc(Oc4ccc(F)cc4F)cc3)c(C(N)=O)c2N)C1
# output 7.41

# input Next compound: NC(=O)c1c(-c2ccc(Oc3ccc(Cl)cc3)cc2)nn([C@@H]2CCCN(C(=O)/C=C/CO)C2)c1N
# output 8.64
